- Test system: HeLa;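 also: Hoechst-stained nuclei counted by automated confocal imaging of four fields per well in 384-well plates, with the robust Z-score based on the per-plate DMSO median and robust SD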
- Method Summary: nuclear count per well, robust Z-score vs DMSO; higher = more cells (less toxicity)
- Setup Conditions: 10 µM; 6 h
Entry class follows nuclear count per well: one: < -0.7; two: ≥ -0.7 and < 0.1; three: ≥ 0.1

(Q) Quick check: band for COc1cc(NC(C)CCCN)c2ncccc2c1 (centres undefined) [Primaquine Phosphate]
(A) two

(Q) Exercise: read the entry Cc1c2oc3c(C)ccc(C(=O)N[C@@H]4C(=O)N[C@H](C(C)C)C(=O)N5CCC[C@H]5C(=O)N(C)CC(=O)N(C)[C@@H](C(C)C)C(=O)O[C@@H]4C)c3nc-2c(C(=O)N[C@@H]2C(=O)N[C@H](C(C)C)C(=O)N3CCC[C@H]3C(=O)N(C)CC(=O)N(C)[C@@H](C(C)C)C(=O)O[C@@H]2C)c(N)c1=O [Actinomycin D] and state which class it falls under.
(A) one

(Q) Which category does the recorded nuclear count per well put NNc1nncc2ccccc12 in?
(A) three

(Q) Lab note: sort CC(C)(C)c1cc(O)c(C(C)(C)C)cc1O [2,5-Ditertbutylhydroquinone] into the matching nuclear count per well band.
(A) one

(Q) Hey, which category is O=C(O)C(O)C(O)C(=O)O (centres undefined) [Tartaric acid] in, do you know?
(A) three

(Q) Band assignment needed for C[n+]1ccccc1/C=N/O [Pralidoxime Chloride] please.
(A) two

(Q) Consider Cc1ccc2c(c1)C(=O)C1(O)CCN(c3ccccc3)C1=N2 (centres undefined) [Blebbistatin] . To which nuclear count per well class does it belong?
(A) three

(Q) Which category does the recorded nuclear count per well put CO[C@H]1/C=C/O[C@@]2(C)Oc3c(C)c(O)c4c(O)c(c(/C=N/N5CCN(C)CC5)c(O)c4c3C2=O)NC(=O)/C(C)=C\C=C\[C@H](C)[C@H](O)[C@@H](C)[C@@H](O)[C@@H](C)[C@H](OC(C)=O)[C@@H]1C [Rifampin (Rifampicin)] in?
(A) two

(Q) Category of O=C1C(SCCO)=C(SCCO)C(=O)c2ccccc21 :
(A) one

(Q) In plain terms, what class is O=C(Nc1ccc([N+](=O)[O-])cc1Cl)c1cc(Cl)ccc1O [Niclosamide] ?
(A) one

(Q) Which category fits this record: C[C@@H]1NC(=O)[C@@H](N)CNC(=O)[C@H](C2CCNC(=N)N2)NC(=O)/C(=C/NC(N)=O)NC(=O)[C@H](CNC(=O)CC(N)CCCN)NC1=O.N=C1NCC[C@H]([C@@H]2NC(=O)/C(=C/NC(N)=O)NC(=O)[C@H](CNC(=O)C[C@@H](N)CCCN)NC(=O)[C@H](CO)NC(=O)[C@@H](N)CNC2=O)N1 [Capreomycin Disulfate]
(A) three

(Q) Band for COc1ccccc1OCC(O)COC(N)=O (centres undefined) [Methocarbamol] ?
(A) two

(Q) Lab log: CC(CCc1ccccc1)NCC(O)c1ccc(O)c(C(N)=O)c1 (centres undefined) — assign nuclear count per well category
(A) three
